- protocol.text: Inhibition of testosterone-5-alpha-reductase at 200 ug/mL
outcome.measure: inhibition
Express your answer as a number followed by its unit.

Some compounds with known inhibition results, for comparison:
compound | inhibition
C=C(C)C(CC=C(C)C)Cc1c(O)cc(OC)c2c1O[C@H](c1ccc(O)cc1O)[C@@H](O)C2=O (stereo partly drawn) | 85.1%
C=C(C)C(CC=C(C)C)Cc1c(O)cc(OC)c2c1O[C@H](c1ccccc1O)CC2=O (stereo partly drawn) | 73.5%
C=C(C)C(CCC(C)(C)O)Cc1c(O)cc(O)c2c1O[C@H](c1ccc(O)cc1O)CC2=O (stereo partly drawn) | 82.2%

## Input Assign inhibition to the following record: C=C(C)C(CC=C(C)C)Cc1c(O)cc(OC)c2c1O[C@H](c1ccc(O)cc1OC)CC2=O (stereo partly drawn)
## Output 94.7%

## Input Assign inhibition to the following record: C=C(C)C(CC=C(C)C)Cc1c(O)cc(OC)c2c1O[C@H](c1ccc(O)cc1O)CC2=O (stereo partly drawn)
## Output 93.8%

src = ChEMBL document CHEMBL1144146
